Target: CSF1R (FMS) (Homo sapiens)
Sequence (P07333 20-972): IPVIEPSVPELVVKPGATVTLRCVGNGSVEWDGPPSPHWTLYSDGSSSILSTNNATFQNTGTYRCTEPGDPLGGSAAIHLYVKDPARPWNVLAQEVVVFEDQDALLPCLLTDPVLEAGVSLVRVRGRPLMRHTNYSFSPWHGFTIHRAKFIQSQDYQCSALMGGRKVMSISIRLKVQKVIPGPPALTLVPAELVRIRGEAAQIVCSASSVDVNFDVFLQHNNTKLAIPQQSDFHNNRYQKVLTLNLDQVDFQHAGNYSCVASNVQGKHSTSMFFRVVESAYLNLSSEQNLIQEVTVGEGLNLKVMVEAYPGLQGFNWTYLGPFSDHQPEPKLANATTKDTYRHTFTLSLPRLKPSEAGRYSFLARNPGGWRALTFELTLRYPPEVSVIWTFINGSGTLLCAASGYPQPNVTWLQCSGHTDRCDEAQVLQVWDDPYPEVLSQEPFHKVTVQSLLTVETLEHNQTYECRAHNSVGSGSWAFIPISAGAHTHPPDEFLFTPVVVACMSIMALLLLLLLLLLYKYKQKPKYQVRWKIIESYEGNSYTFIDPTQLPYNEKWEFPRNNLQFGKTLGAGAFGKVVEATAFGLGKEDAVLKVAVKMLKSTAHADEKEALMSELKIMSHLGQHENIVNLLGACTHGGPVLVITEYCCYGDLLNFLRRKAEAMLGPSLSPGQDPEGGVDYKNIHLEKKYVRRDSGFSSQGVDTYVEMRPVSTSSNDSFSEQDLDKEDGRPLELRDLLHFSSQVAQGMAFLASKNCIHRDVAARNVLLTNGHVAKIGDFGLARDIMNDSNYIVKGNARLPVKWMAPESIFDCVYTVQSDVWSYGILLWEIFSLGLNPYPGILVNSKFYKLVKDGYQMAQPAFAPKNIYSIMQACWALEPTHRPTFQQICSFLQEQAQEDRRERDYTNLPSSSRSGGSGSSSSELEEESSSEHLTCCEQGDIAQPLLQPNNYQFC
Where a name gives a salt, the structure may show the parent alone.
recordedMetric: IC50 (nM)

molecule="C[C@@H]1CN(C(=O)c2ccc(NC(=O)c3cc(O[C@H](C)c4c(Cl)ccc(F)c4Cl)c(N)nn3)cc2)C[C@H](C)N1 [compound of Formula I, hydrochloride]" valueunit=nM reportedresult=13.4

----------
Molecular target: ALK-TPM3 (Homo sapiens, UniProt Q9UM73)
Sequence (Q9UM73 1116-1392 limits assumed): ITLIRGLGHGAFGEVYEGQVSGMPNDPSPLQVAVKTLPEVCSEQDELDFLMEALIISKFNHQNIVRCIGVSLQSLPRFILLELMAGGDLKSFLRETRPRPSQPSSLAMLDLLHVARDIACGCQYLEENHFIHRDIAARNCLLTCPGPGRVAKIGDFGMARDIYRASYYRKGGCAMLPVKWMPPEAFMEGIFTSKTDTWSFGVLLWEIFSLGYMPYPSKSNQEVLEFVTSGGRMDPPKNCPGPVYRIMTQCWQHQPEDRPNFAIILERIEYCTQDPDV
Structures can show the parent of a compound that is named as a salt.
recordedMetric: IC50 (pM)

compound="C[C@@H]1CN(C(=O)c2ccc(NC(=O)c3cc(O[C@H](C)c4c(Cl)ccc(F)c4Cl)c(N)nn3)cc2)C[C@H](C)N1 [compound of Formula I, hydrochloride]" systemtested="ALK-TPM3 (Homo sapiens, UniProt Q9UM73)" reportedresult=210

----------
Molecular target: UniProt P08581
Sequence (P08581 25-1390): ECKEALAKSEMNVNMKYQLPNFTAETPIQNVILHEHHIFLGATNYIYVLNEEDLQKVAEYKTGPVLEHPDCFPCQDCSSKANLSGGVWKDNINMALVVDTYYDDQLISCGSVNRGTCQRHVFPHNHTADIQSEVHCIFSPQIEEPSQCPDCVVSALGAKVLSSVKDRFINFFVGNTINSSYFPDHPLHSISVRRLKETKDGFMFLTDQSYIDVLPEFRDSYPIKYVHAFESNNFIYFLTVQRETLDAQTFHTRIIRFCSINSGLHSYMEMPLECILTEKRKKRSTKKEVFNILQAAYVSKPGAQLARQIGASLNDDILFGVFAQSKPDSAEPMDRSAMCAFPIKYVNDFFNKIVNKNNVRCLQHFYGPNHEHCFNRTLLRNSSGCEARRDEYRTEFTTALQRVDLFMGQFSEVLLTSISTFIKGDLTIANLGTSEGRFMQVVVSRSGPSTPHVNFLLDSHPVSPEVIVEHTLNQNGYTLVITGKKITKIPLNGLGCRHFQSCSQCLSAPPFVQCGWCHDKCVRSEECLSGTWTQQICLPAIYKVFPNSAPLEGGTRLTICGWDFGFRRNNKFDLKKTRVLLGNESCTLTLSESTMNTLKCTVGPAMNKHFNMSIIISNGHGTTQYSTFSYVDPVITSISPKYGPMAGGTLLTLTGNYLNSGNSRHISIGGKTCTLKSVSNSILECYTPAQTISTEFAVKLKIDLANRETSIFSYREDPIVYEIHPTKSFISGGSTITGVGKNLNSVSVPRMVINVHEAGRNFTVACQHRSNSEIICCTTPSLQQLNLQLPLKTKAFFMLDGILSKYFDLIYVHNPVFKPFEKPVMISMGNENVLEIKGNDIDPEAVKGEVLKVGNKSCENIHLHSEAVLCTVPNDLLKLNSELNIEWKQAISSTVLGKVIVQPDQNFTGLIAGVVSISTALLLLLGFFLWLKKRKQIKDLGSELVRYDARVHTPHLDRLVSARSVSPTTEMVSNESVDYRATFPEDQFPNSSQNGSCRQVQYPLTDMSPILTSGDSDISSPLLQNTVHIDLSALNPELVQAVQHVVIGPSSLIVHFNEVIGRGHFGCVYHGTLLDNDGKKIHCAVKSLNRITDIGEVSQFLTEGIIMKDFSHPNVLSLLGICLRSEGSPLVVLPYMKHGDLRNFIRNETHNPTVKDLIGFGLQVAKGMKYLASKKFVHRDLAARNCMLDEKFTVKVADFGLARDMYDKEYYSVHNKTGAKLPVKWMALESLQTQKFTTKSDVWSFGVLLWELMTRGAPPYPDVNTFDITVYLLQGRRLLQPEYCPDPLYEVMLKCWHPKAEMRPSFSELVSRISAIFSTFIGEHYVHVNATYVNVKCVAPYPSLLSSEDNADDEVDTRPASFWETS
Structures can show the parent of a compound that is named as a salt.
recordedMetric: IC50 (nM)

compound="C[C@@H]1CN(C(=O)c2ccc(NC(=O)c3cc(O[C@H](C)c4c(Cl)ccc(F)c4Cl)c(N)nn3)cc2)C[C@H](C)N1 [compound of Formula I, hydrochloride]" systemtested="UniProt P08581" valueunit=nM reportedresult=9.59

----------
Molecular target: ALK (F1174S) (Homo sapiens, UniProt Q9UM73, F1174S)
Construct: purchased Reaction Biology Corp (contract testing)
Experiment: Biochemical kinase activity (Reaction Biology Corp)
Protocol: Biochemical kinase activity of the compound as shown in formula I was tested by Reaction Biology Corp located in Malvern, Pa., USA. The testing rules is described in Nat Biotechnol.
Structures can show the parent of a compound that is named as a salt.
recordedMetric: IC50 (nM)

compound="C[C@@H]1CN(C(=O)c2ccc(NC(=O)c3cc(O[C@H](C)c4c(Cl)ccc(F)c4Cl)c(N)nn3)cc2)C[C@H](C)N1 [compound of Formula I, hydrochloride]" reportedresult=0.17

----------
Target: TRKA (Homo sapiens, UniProt P04629)
Construct: purchased Reaction Biology Corp (contract testing)
Sequence (P04629 33-796): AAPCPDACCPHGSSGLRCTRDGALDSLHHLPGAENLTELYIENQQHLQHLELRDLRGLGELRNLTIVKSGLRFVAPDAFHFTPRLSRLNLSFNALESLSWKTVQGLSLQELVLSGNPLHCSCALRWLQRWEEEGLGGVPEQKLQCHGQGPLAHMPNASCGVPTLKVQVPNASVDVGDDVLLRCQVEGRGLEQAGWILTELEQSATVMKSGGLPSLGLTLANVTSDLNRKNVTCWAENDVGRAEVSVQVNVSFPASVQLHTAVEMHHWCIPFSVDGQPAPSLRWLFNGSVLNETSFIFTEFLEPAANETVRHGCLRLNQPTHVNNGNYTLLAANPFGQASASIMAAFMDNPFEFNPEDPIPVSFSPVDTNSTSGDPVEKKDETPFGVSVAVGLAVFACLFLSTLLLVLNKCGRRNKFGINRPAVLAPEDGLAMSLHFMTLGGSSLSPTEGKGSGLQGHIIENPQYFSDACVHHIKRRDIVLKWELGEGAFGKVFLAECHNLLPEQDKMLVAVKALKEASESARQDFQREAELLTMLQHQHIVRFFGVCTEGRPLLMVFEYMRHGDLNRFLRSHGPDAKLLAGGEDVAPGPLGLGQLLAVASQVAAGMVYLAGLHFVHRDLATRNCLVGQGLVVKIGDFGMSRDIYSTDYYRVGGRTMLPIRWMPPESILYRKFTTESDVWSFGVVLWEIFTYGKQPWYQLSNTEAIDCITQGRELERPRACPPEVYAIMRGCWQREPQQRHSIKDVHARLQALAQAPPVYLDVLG
Assay: Biochemical kinase activity (Reaction Biology Corp)
Structures can show the parent of a compound that is named as a salt.
recordedMetric: IC50 (nM)

compound="C[C@@H]1CN(C(=O)c2ccc(NC(=O)c3cc(O[C@H](C)c4c(Cl)ccc(F)c4Cl)c(N)nn3)cc2)C[C@H](C)N1 [compound of Formula I, hydrochloride]" valueunit=nM reportedresult=8
